# protocol_text: Quantitative High-Throughput drug screen in 47 multiple myeloma cell lines against the NCATS MIPE library collection: UTMC2_PLB cell viability assay (AID 1919868); also: nearly all actives have a fitted effect of over 55% in size
# condition_context: CellTiter-Glo ATP luminescence, 48 h; series mostly up to 45.8 µM
Records with an inconclusive call do not appear. Calls of active or inactive are those of the source. Calls follow the shape of the dose curve; as a rule, active = well fitted cell-killing curve with a large enough effect; inconclusive = small, poorly fitted or top-dose-only effect, or effect the other way; inactive = no such curve, though single readings can be large or run the other way.
Outcome codes: active, inactive

[[record]]
compound = "COC(=O)Nc1nc2ccc(Sc3ccccc3)cc2[nH]1"
category = "active"

[[record]]
compound = "CCc1c2c(nc3ccc(OC(=O)N4CCC(N5CCCCC5)CC4)cc13)-c1cc3c(c(=O)n1C2)COC(=O)[C@]3(O)CC"
category = "active"

[[record]]
compound = "O[C@@H](CNC[C@H](O)[C@H]1CCc2cc(F)ccc2O1)[C@@H]1CCc2cc(F)ccc2O1"
category = "active"

[[record]]
compound = "CCOc1cc(N)c(Cl)cc1C(=O)NCC1CN(Cc2ccc(F)cc2)CCO1 (stereo not given)"
category = "inactive"

[[record]]
compound = "CC(C)(C)NC(=O)[C@H]1CC[C@H]2[C@@H]3CC[C@H]4NC(=O)C=C[C@]4(C)[C@H]3CC[C@]12C"
category = "active"

[[record]]
compound = "CCOC(=O)[C@H](CCc1ccccc1)N[C@H]1CCc2ccccc2N(CC(=O)O)C1=O"
category = "active"

[[record]]
compound = "CC1=C(C(=O)O)N2C(=O)[C@@H](NC(=O)C(N)c3ccccc3)[C@H]2SC1 (stereo not given in full)"
category = "inactive"

[[record]]
compound = "C[C@@H]1C[C@H]2[C@@H]3CCC4=CC(=O)C=C[C@]4(C)[C@@]3(Cl)[C@@H](O)C[C@]2(C)[C@@]1(OC(=O)c1ccco1)C(=O)CCl"
category = "active"

[[record]]
compound = "Nc1nc(F)nc2c1ncn2[C@@H]1O[C@H](CO)[C@@H](O)[C@@H]1O"
category = "active"

[[record]]
compound = "CCCOc1ccc(C(=O)OCCN(CC)CC)cc1N"
category = "inactive"

[[record]]
compound = "COc1cc(NCc2ccc3nc(N)nc(N)c3c2C)cc(OC)c1OC"
category = "active"

[[record]]
compound = "Cc1cccc(Nc2ccncc2S(=O)(=O)NC(=O)NC(C)C)c1"
category = "inactive"

[[record]]
compound = "CC(C)NCC(O)c1ccc(NS(C)(=O)=O)cc1 (stereo not given)"
category = "inactive"

[[record]]
compound = "CN1CCCC(n2nc(Cc3ccc(Cl)cc3)c3ccccc3c2=O)CC1 (stereo not given)"
category = "active"

[[record]]
compound = "CNS(=O)(=O)CCc1ccc2[nH]cc(C3CCN(C)CC3)c2c1"
category = "active"

[[record]]
compound = "CN1CCN(c2c(F)cc3c(=O)c(C(=O)O)cn4c3c2OCN4C)CC1"
category = "inactive"

[[record]]
compound = "CC(C)C[C@H](NC(=O)[C@H](CCc1ccccc1)NC(=O)CN1CCOCC1)C(=O)N[C@@H](Cc1ccccc1)C(=O)N[C@@H](CC(C)C)C(=O)[C@@]1(C)CO1"
category = "active"

[[record]]
compound = "COc1cc([C@@H]2c3cc4c(cc3[C@H](O)[C@H]3COC(=O)[C@H]23)OCO4)cc(OC)c1OC"
category = "inactive"

[[record]]
compound = "CN(Cc1cc(Br)cc(Br)c1N)C1CCCCC1"
category = "inactive"

[[record]]
compound = "CCn1cc(C(=O)O)c(=O)c2cc(F)c(N3CCNCC3)cc21"
category = "inactive"

[[record]]
compound = "O=P(O)(O)C(O)(Cc1cccnc1)P(=O)(O)O"
category = "inactive"

[[record]]
compound = "CCn1cc(C(=O)O)c(=O)c2cc(F)c(N3CCN(C)CC3)cc21"
category = "inactive"

[[record]]
compound = "CCN(CC)CC#CCOC(=O)C(O)(c1ccccc1)C1CCCCC1 (stereo not given)"
category = "inactive"

[[record]]
compound = "O=NN(CCCl)C(=O)NC1CCCCC1"
category = "inactive"

[[record]]
compound = "CC(=O)Oc1ccccc1C(=O)Nc1ncc([N+](=O)[O-])s1"
category = "active"

[[record]]
compound = "COC(=O)Nc1nc2ccc(C(=O)c3ccccc3)cc2[nH]1"
category = "active"

[[record]]
compound = "CC(C)(Sc1cc(C(C)(C)C)c(O)c(C(C)(C)C)c1)Sc1cc(C(C)(C)C)c(O)c(C(C)(C)C)c1"
category = "active"

[[record]]
compound = "NC(=O)c1cccnc1"
category = "inactive"

[[record]]
compound = "Oc1c(Cl)cc(Cl)c2cccnc12"
category = "active"

[[record]]
compound = "CNC(=O)c1cc(Oc2ccc(NC(=O)Nc3ccc(Cl)c(C(F)(F)F)c3)cc2)ccn1"
category = "active"

[[record]]
compound = "CCOC(=O)[C@H](CCc1ccccc1)N[C@H]1CS[C@H](c2cccs2)CN(CC(=O)O)C1=O"
category = "active"

[[record]]
compound = "Cc1nnc(C(=O)NC(C)(C)c2nc(C(=O)NCc3ccc(F)cc3)c(O)c(=O)n2C)o1"
category = "inactive"

[[record]]
compound = "CC[C@H](NC(C)C)[C@H](O)c1ccc(O)c2[nH]c(=O)ccc12"
category = "inactive"

[[record]]
compound = "CCOCC(O)COc1ccc(NC(=O)CC[S+](C)C)cc1 (stereo not given)"
category = "inactive"

[[record]]
compound = "O=C(NCC1CN(c2ccc(N3CCOCC3=O)cc2)C(=O)O1)c1ccc(Cl)s1 (stereo not given)"
category = "inactive"

